# targetUnderTest: T1, human EGFRvIII-hFc protein (human, UniProt P00533 25-645)
# T1 construct: extracellular domain; also called immunogen A; hFc-tagged EGFRvIII protein; not shown: human IgG Fc fragment (hFc) of the pCpC vector
# test: ELISA, EGFRvIII-hFc coated
reportedMetric: OD450 nm at 100 nM antibody (OD450)
State just the number; it will be interpreted in OD450.

Recorded OD450 nm at 100 nM antibody, per entry:
binder | unitsOfMeasure | OD450 nm at 100 nM antibody
Chimeric antibody 7E5 (antibody, human IgG1, V domains shown, also called clone 7E5-2A9) VH: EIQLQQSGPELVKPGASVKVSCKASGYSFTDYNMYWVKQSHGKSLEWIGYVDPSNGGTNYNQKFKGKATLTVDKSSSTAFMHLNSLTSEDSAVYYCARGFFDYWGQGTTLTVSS VL: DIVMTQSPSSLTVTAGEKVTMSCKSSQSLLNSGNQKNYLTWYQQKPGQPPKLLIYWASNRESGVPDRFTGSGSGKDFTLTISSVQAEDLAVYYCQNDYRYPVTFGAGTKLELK | OD450 | 3.6
Chimeric antibody 75G7 (antibody, human IgG1, V domains shown, also called c75G7C6; chimeric antibody c75G7C6) VH: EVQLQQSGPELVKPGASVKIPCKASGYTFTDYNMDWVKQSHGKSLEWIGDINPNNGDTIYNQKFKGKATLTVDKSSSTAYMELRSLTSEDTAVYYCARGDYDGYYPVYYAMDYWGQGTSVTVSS VL: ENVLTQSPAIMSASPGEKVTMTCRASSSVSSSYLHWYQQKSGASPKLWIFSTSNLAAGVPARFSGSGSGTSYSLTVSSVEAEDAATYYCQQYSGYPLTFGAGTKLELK | OD450 | 3.44
Chimeric antibody 63A10 (antibody, human IgG1, V domains shown, also called c63A10A7; chimeric antibody c63A10A7) VH: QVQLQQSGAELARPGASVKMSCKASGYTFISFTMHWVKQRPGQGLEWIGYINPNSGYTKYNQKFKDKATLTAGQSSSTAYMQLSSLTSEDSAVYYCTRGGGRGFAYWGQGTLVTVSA VL: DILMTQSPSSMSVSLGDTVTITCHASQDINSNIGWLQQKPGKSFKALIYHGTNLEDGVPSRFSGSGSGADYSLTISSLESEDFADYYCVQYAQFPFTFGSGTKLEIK | OD450 | 3.55

Input: Record request: OD450 nm at 100 nM antibody value, item Chimeric antibody 64F1 (antibody, human IgG1, V domains shown, also called clone 64F1F8) VH: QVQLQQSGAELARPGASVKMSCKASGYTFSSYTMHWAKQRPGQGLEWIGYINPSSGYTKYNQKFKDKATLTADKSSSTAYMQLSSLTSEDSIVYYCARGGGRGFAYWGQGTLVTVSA VL: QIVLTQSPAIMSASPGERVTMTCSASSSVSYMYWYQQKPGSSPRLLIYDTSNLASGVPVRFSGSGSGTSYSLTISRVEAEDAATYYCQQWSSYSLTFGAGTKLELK
Output: 3.7
